- Experimental Details: Cytotoxicity against human IGROV-ET cells after 48 hrs by SRB assay
- Type: functional
- Stated Conditions: read-out: LC50 (the source's name)
CC50 vs 0.7 µM: less than gives met; not less than gives not met.

Consider the worked cases shown below.
Q. Identify whether the compound CC[C@@H](C)[C@@H](NC(=O)[C@H](CCCN)NC(=O)[C@H]1CCCN1C(=O)[C@H](NC(=O)[C@@H](NC(=O)[C@@H](NC(=O)[C@H](NC(=O)CCCC(C)C)C(C)C)[C@@H](C)O)C(C)C)C(C)C)C(=O)N[C@H]1C(=O)N[C@H]([C@H](C)CC)C(=O)N[C@H](C(C)C)C(=O)N[C@@H](Cc2ccccc2)C(=O)N/C(=C\c2ccccc2)C(=O)N[C@@H](C(C)C)C(=O)O[C@H]1C records CC50 below 0.7 µM.
A. met

Q. Okay, and C/C=C1\NC(=O)[C@H](Cc2ccccc2)NC(=O)[C@@H](C(C)C)NC(=O)[C@@H]([C@H](C)CC)NC(=O)[C@H](NC(=O)[C@H](NC(=O)[C@H](CCCN)NC(=O)[C@H]2CCCN2C(=O)[C@H](NC(=O)[C@@H](NC(=O)[C@@H](NC(=O)[C@@H](CCC(N)=O)NC(=O)CCCC(C)C)[C@@H](C)O)C(C)C)C(C)C)[C@H](C)CC)[C@H](C)OC(=O)[C@H](C(C)C)NC1=O ?
A. met

Q. Next up: C/C=C1\NC(=O)[C@H](Cc2ccccc2)NC(=O)[C@@H](C(C)C)NC(=O)[C@@H]([C@@H](C)CC)NC(=O)[C@H](NC(=O)[C@H](NC(=O)[C@H](CCCN)NC(=O)[C@H]2CCCN2C(=O)[C@H](NC(=O)[C@@H](NC(=O)[C@@H](NC(=O)[C@H](NC(=O)CCCC(C)C)[C@@H](C)O)[C@@H](C)O)C(C)C)C(C)C)[C@@H](C)CC)[C@@H](C)OC(=O)[C@H](C(C)C)NC1=O
A. met

Further cases:
Q. API: query returns whether the compound falls strictly under 0.7 µM in CC50. Query: C/C=C1\NC(=O)[C@H](Cc2ccccc2)NC(=O)[C@@H](C(C)C)NC(=O)[C@@H]([C@H](C)CC)NC(=O)[C@H](NC(=O)[C@H](NC(=O)[C@H](CCCN)NC(=O)[C@H]2CCCN2C(=O)[C@H](NC(=O)[C@@H](NC(=O)[C@@H](NC(=O)[C@H](NC(=O)CC[C@@H](C)CC)C(C)C)[C@@H](C)O)C(C)C)C(C)C)[C@H](C)CC)[C@H](C)OC(=O)[C@H](C(C)C)NC1=O
A. not met

====

Item-by-item account of Activity
- System: A549
- Experimental Details: Cytotoxicity against human A549 cells after 48 hrs by SRB assay
- Type: functional, cell-based
Note: unit ×10⁻⁶ M is implicit; provide only the numeric part.

Guide cases for Activity, answers given:
Q. Find the recorded Activity belonging to C/C=C1\NC(=O)[C@H](Cc2ccccc2)NC(=O)[C@@H](C(C)C)NC(=O)[C@@H]([C@H](C)CC)NC(=O)[C@H](NC(=O)[C@H](NC(=O)[C@H](CCCN)NC(=O)[C@H]2CCCN2C(=O)[C@H](NC(=O)[C@@H](NC(=O)[C@@H](NC(=O)[C@H](NC(=O)[C@H](NC(=O)C(C)C)[C@H](C)CC)C(C)C)[C@@H](C)O)C(C)C)C(C)C)[C@H](C)CC)[C@H](C)OC(=O)[C@H](C(C)C)NC1=O and report it.
A. 6.46

Q. Here is the next molecule: C/C=C1\NC(=O)[C@H](Cc2ccccc2)NC(=O)[C@@H](C(C)C)NC(=O)[C@@H]([C@H](C)CC)NC(=O)[C@H](NC(=O)[C@H](NC(=O)[C@H](CCCN)NC(=O)[C@H]2CCCN2C(=O)[C@H](NC(=O)[C@@H](NC(=O)[C@@H](NC(=O)[C@H](NC(=O)C(F)(F)F)C(C)C)[C@@H](C)O)C(C)C)C(C)C)[C@H](C)CC)[C@H](C)OC(=O)[C@H](C(C)C)NC1=O
A. 6.84

Q. Subsequent entry: C/C=C1\NC(=O)[C@H](Cc2ccccc2)NC(=O)[C@@H](C(C)C)NC(=O)[C@@H]([C@H](C)CC)NC(=O)[C@H](NC(=O)[C@H](NC(=O)[C@H](CCCN)NC(=O)[C@H]2CCCN2C(=O)[C@H](NC(=O)[C@@H](NC(=O)[C@@H](NC(=O)[C@H](NC(=O)CC(C)(C)C)C(C)C)[C@@H](C)O)C(C)C)C(C)C)[C@H](C)CC)[C@H](C)OC(=O)[C@H](C(C)C)NC1=O
A. 1.71

Further cases:
Q. Recorded Activity of C/C=C1\NC(=O)[C@H](Cc2ccccc2)NC(=O)[C@@H](C(C)C)NC(=O)[C@@H]([C@H](C)CC)NC(=O)[C@H](NC(=O)[C@H](NC(=O)[C@H](CCCN)NC(=O)[C@H]2CCCN2C(=O)[C@H](NC(=O)[C@@H](NC(=O)[C@@H](NC(=O)[C@H](NC(=O)CCCOC(C)=O)C(C)C)[C@@H](C)O)C(C)C)C(C)C)[C@H](C)CC)[C@H](C)OC(=O)[C@H](C(C)C)NC1=O , please.
A. 6.7

Q. Same question for C/C=C1\NC(=O)[C@H](Cc2ccccc2)NC(=O)[C@@H](C(C)C)NC(=O)[C@@H]([C@H](C)CC)NC(=O)[C@H](NC(=O)[C@H](NC(=O)[C@H](CCCN)NC(=O)[C@H]2CCCN2C(=O)[C@H](NC(=O)[C@@H](NC(=O)[C@@H](NC(=O)[C@H](NC(C)=O)C(C)C)[C@@H](C)O)C(C)C)C(C)C)[C@H](C)CC)[C@H](C)OC(=O)[C@H](C(C)C)NC1=O please.
A. 7.11
